# experimental system: Adenosine receptor A1 (Rattus norvegicus, UniProt P25099)
# Sequence (P25099 whole entry): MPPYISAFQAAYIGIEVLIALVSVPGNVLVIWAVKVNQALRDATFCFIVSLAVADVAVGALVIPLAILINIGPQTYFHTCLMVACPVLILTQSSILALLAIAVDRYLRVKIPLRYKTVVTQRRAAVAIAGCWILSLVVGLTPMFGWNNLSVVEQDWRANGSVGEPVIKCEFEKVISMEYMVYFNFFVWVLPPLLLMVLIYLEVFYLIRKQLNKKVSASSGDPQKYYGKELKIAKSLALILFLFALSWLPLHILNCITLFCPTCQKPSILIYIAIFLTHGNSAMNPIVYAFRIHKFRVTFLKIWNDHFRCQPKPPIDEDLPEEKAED
# test protocol: Inhibition of A1 agonist (R)-[3H]N 6-(phenylisopropyl) adenosine binding to membranes from rat whole brain
parameter measured: pKi
Numbers only, as −log10 of the molar value.

Task: Quick check: pKi of CCCSc1nc(SC(CC)C(N)=O)nc2c1cnn2-c1ccccc1 (stereo unspecified) ?
Result: 7.53
